Values from the supplement of paper PMC10126150

Tested on: ATP;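 further: ATP exposure 15 min at 22 °C before imaging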
Experiment: switch fluorescence ratio, 500 uM ATP over buffer (Cy3 cluster intensity, sum of 5 cycles each) (fold (ratio)); higher = stronger signal-on switching upon ATP binding; sequences stand for … in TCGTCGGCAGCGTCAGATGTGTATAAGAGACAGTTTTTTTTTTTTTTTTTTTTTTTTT…TC
Details: aptamer strand: ATP DNA aptamer (quencher-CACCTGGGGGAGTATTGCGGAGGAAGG + anchor), 100 nM annealed; ATP concentration: 500 uM
EXPERIMENTAL ENDPOINT: switch fluorescence ratio
Respond numerically, and do not add a unit to the figure.

What does the data say about its switch fluorescence ratio? Entry: GTGTGGGCTG 1

What does the data say about its switch fluorescence ratio? Entry: GTTTTTCCTT 0.998

What does the data say about its switch fluorescence ratio? Entry: CATGGGGATT 1.02

What does the data say about its switch fluorescence ratio? Entry: CGGGAGTTGT 0.99

What does the data say about its switch fluorescence ratio? Entry: GGAGGACTTT 0.983

What does the data say about its switch fluorescence ratio? Entry: TAGCAGGGTG 1.14

What does the data say about its switch fluorescence ratio? Entry: CCGGCTTACG 1.2

What does the data say about its switch fluorescence ratio? Entry: TTTTATGAG 0.999

What does the data say about its switch fluorescence ratio? Entry: AGAGTATTAG 1

What does the data say about its switch fluorescence ratio? Entry: AACAAGTTAG 1.01

What does the data say about its switch fluorescence ratio? Entry: TAACGGGGCG 1.01

What does the data say about its switch fluorescence ratio? Entry: GAGTTGTGAT 1

What does the data say about its switch fluorescence ratio? Entry: TGTTGTGGGT 1

What does the data say about its switch fluorescence ratio? Entry: ACTTTTTTAT 1.01

What does the data say about its switch fluorescence ratio? Entry: AGGTTCACTT 0.998

What does the data say about its switch fluorescence ratio? Entry: TTTAGCTGAA 0.962

What does the data say about its switch fluorescence ratio? Entry: CGGCTTATTC 1.04

What does the data say about its switch fluorescence ratio? Entry: ATCCTGCAGT 1.15

What does the data say about its switch fluorescence ratio? Entry: TACGAGCTGG 0.995

What does the data say about its switch fluorescence ratio? Entry: CAATTTGTCT 1.01

What does the data say about its switch fluorescence ratio? Entry: GCGAAGACAA 1.04

What does the data say about its switch fluorescence ratio? Entry: GGGTGGTGGC 0.964

What does the data say about its switch fluorescence ratio? Entry: GACATAAAAA 0.986

What does the data say about its switch fluorescence ratio? Entry: TCCAGGAATT 1

What does the data say about its switch fluorescence ratio? Entry: TTTGTTTGTA 1.01

What does the data say about its switch fluorescence ratio? Entry: GGTTTTATTG 0.987

What does the data say about its switch fluorescence ratio? Entry: ATAAAGAGAG 1.01

What does the data say about its switch fluorescence ratio? Entry: TGGGTGGTCT 0.997

What does the data say about its switch fluorescence ratio? Entry: GGCTTCCCGG 1.16

What does the data say about its switch fluorescence ratio? Entry: TATGGAGGAT 1.09

What does the data say about its switch fluorescence ratio? Entry: TTTAACCGTC 1.06

What does the data say about its switch fluorescence ratio? Entry: GAACTATTCA 0.985

What does the data say about its switch fluorescence ratio? Entry: TTTATACGGC 1.03

What does the data say about its switch fluorescence ratio? Entry: GTGGGATTTG 0.97

What does the data say about its switch fluorescence ratio? Entry: CGGGATGTGC 0.993

What does the data say about its switch fluorescence ratio? Entry: GTGAAAAAGA 1.01

What does the data say about its switch fluorescence ratio? Entry: TTCATTCGTT 1.05

What does the data say about its switch fluorescence ratio? Entry: AGATGGTGGG 1

What does the data say about its switch fluorescence ratio? Entry: TTTAGCAACA 1.04
